The measured values listed here are drawn from the supplement of paper PMC10567573.

B1: TMEM106C (parent)
chain: YVTTNVSLIPPRSEQLVNFTGKAE

# Variants of: B1
# test_name: protein stability index of a GFP-peptide fusion (GPS, HEK-293T) (PSI 1-6); higher = more stable;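 further: lentivirally expressed fusions sorted by FACS into six bins by GFP to DsRed ratio, PSI derived from sequencing read proportions per bin multiplied by bin number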
# test_parameters: c terminus: a fixed tail appended
This section presents variants with their documented protein stability index values.

- E14H: 1.92
- S7V: 1.79
- S13A: 2.22
- K22W: 3.19
- P10V: 3.38

Please find the next variant below.
[ask] What does the data say about its protein stability index? Entry: `R12V`
[reply] 2.08
